target: FXa (Homo sapiens, UniProt P00742); test: Determination of selectivity: FXa inhibition, chromogenic substrate S2765 assay; format: biochemical; conditions: fold selectivity for FXIIa over FXa
Sequence (P00742 235-488 limits assumed): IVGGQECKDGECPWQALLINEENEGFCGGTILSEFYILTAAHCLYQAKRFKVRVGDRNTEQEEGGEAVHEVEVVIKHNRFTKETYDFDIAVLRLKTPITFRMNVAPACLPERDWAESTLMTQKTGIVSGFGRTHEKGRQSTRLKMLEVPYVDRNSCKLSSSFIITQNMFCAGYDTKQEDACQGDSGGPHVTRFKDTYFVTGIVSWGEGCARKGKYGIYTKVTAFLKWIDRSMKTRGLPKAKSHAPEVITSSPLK
Sequence (P00742 41-179 partner limits assumed): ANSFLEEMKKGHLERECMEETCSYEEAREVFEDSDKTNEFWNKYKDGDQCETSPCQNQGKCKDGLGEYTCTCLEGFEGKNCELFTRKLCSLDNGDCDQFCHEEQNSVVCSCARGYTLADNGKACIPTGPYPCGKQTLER
QUANTITY_NAME: FXa (human)/FXIIa alpha (human)

// solved cases for FXa (human)/FXIIa alpha (human) follow
COMPOUND | VALUE_OBSERVED
COc1ccc(C[C@@H]2C[C@@H](C(=O)NCc3ccc4c(c3)nnn4C)N(C(=O)[C@H](N)CCC(=O)N3CCNC(=O)C3)C2)cc1 [Example M05451] | ∘∘∘
Cn1nnc2cc(CNC(=O)[C@@H]3CC(Cc4ccnc(F)c4)CN3C(=O)[C@H](N)CCC(=O)N3CCCC3)ccc21 (stereo partly shown) [Example M05314] | ∘∘∘
Cn1nnc2cc(CNC(=O)[C@@H]3C[C@@H](Cc4ccc(Br)cc4)CN3C(=O)[C@H](N)CCC(=O)N3CCCC3)ccc21 [Example M05326] | ∘∘∘
N[C@H](CCc1ccccc1)C(=O)N1CCC[C@H]1C(=O)NCc1ccc2nccn2c1 [Example M05021] | ∘∘
COc1ccc(C[C@@H]2C[C@@H](C(=O)NCc3ccc4c(c3)nnn4C)N(C(=O)C3NCCc4cc(Br)ccc43)C2)cc1 (stereo partly shown) [Example M05470] | ∘∘∘
COc1ccc(CC2C[C@@H](C(=O)NCc3ccc4c(c3)nnn4C)N(C(=O)[C@H]3C[C@@H](c4ccccc4)CN3)C2)cc1OC (stereo partly shown) [Example M05348] | ∘∘∘
COc1ccc(C[C@@H]2C[C@@H](C(=O)NCc3ccc4c(c3)nnn4C)N(C(=O)[C@H]3CC(c4ccccc4OC)CN3)C2)cc1 (stereo partly shown) [Example M05378] | ∘∘∘
Cn1nnc2cc(CNC(=O)[C@@H]3CC(Cc4ccccc4C#N)CN3C(=O)[C@H](N)CCC(=O)N3CCCC3)ccc21 (stereo partly shown) [Example M05320] | ∘∘∘
Cn1nnc2cc(CNC(=O)[C@@H]3CC(Cc4ccc(OC(F)(F)F)cc4)CN3C(=O)[C@H](N)CCC(=O)N3CCCC3)ccc21 (stereo partly shown) [Example M05306] | ∘∘∘
Cn1nnc2cc(CNC(=O)[C@@H]3C[C@@H](Cc4cccc(Br)c4)CN3C(=O)[C@H](N)CCC(=O)N3CCCC3)ccc21 [Example M05317] | ∘∘∘

## Input Specify reported FXa (human)/FXIIa alpha (human) for the compound shown: Cn1nnc2cc(CNC(=O)[C@@H]3C[C@@H](Cc4ccc(Cl)cc4Cl)CN3C(=O)[C@H]3C[C@@H](c4ccccc4)CN3)ccc21 [Example M05373]
## Output ∘∘

## Input Specify reported FXa (human)/FXIIa alpha (human) for the compound shown: COc1ccc(C[C@@H]2C[C@@H](C(=O)NCc3ccc4c(Cl)nn(C)c4c3)N(C(=O)[C@H](N)CCC(=O)N3CCCC3)C2)cc1 [Example M05449]
## Output ∘∘∘

## Input Specify reported FXa (human)/FXIIa alpha (human) for the compound shown: Nc1nccc2cc(CNC(=O)[C@@H]3C[C@@H](Cc4cccc(Cl)c4)CN3C(=O)[C@H](N)CCC(=O)N3CCCC3)ccc12 [Example M05266]
## Output ∘∘

---

biological target: FXa (Homo sapiens); assay: Determination of selectivity: FXa inhibition, chromogenic substrate S2765 assay; assay type: biochemical; conditions: fold selectivity for FXIIa over FXa
QUANTITY_NAME: FXa (human)/FXIIa alpha (human)

// solved cases for FXa (human)/FXIIa alpha (human) follow
COMPOUND | FXa (human)/FXIIa alpha (human)
COc1ccc(C[C@@H]2C[C@@H](C(=O)NCc3ccc4c(c3)nnn4C)N(C(=O)[C@H]3CC(c4c[nH]cn4)CN3)C2)cc1 (stereo partly shown) | ∘∘
Cn1nnc2cc(CNC(=O)[C@@H]3C[C@@H](Cc4cccc(Br)c4)CN3C(=O)[C@H]3C[C@@H](c4ccccc4)CN3)ccc21 | ∘∘
COc1ccc(C[C@@H]2C[C@@H](C(=O)NCc3ccc4c(c3)nnn4C)N(C(=O)[C@H]3CC(c4ccccc4C)CN3)C2)cc1 (stereo partly shown) | ∘∘∘
NCc1ccc(CNC(=O)[C@@H]2CCCN2C(=O)[C@H](N)CCC(=O)N2CC=CC2)cc1 | ∘∘
COc1ccc(C[C@@H]2C[C@@H](C(=O)NCc3cc4cnccc4[nH]3)N(C(=O)C3NCCc4cc(OC)ccc43)C2)cc1 (single isomer, unassigned) [Example M00963] | ∘∘∘

## Input Give FXa (human)/FXIIa alpha (human); test system FXa (Homo sapiens); compound `COc1cc(CNC(=O)[C@@H]2CCCN2C(=O)[C@H](N)CCc2ccccc2)cnc1CN`
## Output ∘∘

## Input Give FXa (human)/FXIIa alpha (human); test system FXa (Homo sapiens); compound `Cn1nnc2cc(CNC(=O)[C@@H]3C[C@H](NCc4ccccc4)CN3C(=O)[C@H](N)CCc3ccccc3)ccc21`
## Output ∘∘

---

target: FXa (Homo sapiens); test: Determination of selectivity: FXa inhibition, chromogenic substrate S2765 assay; assay type: biochemical; details: fold selectivity for FXIIa over FXa
QUANTITY_NAME: FXa (human)/FXIIa alpha (human)

// solved cases for FXa (human)/FXIIa alpha (human) follow
MOLECULE | FXa (human)/FXIIa alpha (human)
Cn1nnc2cc(CNC(=O)[C@@H]3C[C@@H](Cc4ccncc4)CN3C(=O)[C@@H](CCC(=O)N3CCCC3)NS(C)(=O)=O)ccc21 [Example M05268] | ∘∘∘
CC(C)Oc1ccc(CC2C[C@@H](C(=O)NCc3ccc4c(c3)nnn4C)N(C(=O)[C@H]3C[C@@H](c4ccccc4)CN3)C2)cc1 (stereo partly drawn) [Example M05349] | ∘∘
COc1ccc(C[C@@H]2C[C@@H](C(=O)NCc3ccc4c(c3)nnn4C)N(C(=O)C3NCCc4cc(OC)ccc43)C2)cc1 (stereo partly drawn) [Example M05441] | ∘∘∘
Cc1ccc(CC[C@@H](N)C(=O)N2CCC[C@H]2C(=O)NCc2ccc(CN)cc2)cc1 [Example M00787] | ∘∘
COc1ccc(C[C@@H]2C[C@@H](C(=O)NCc3ccc4c(c3)nnn4C)N(C(=O)[C@H](N)CCC(=O)N3C4CCC3COC4)C2)cc1 [Example M05411] | ∘∘∘

Next, consider the following molecule.
## Input Specify reported FXa (human)/FXIIa alpha (human) for the molecule shown: Cn1nnc2cc(CNC(=O)[C@@H]3C[C@H](Cc4ccccc4)CN3C(=O)[C@H](N)CCC(=O)N3CCCC3)ccc21 [Example M05211]
## Output ∘∘∘

---

target: FXa (Homo sapiens); assay: Determination of selectivity: FXa inhibition, chromogenic substrate S2765 assay; format: biochemical; details: fold selectivity for FXIIa over FXa
QUANTITY_NAME: FXa (human)/FXIIa alpha (human)

// solved cases for FXa (human)/FXIIa alpha (human) follow
COMPOUND | FXa (human)/FXIIa alpha (human)
Cn1nnc2cc(CNC(=O)[C@@H]3C[C@H](Cc4cccc(F)c4)CN3C(=O)[C@H](N)CCC(=O)N3CCCC3)ccc21 [Example M05232] | ∘∘∘
Nc1nccc2cc(CNC(=O)[C@@H]3C[C@H](c4ccccc4)CN3C(=O)[C@H](N)CCC(=O)N3CCCC3)ccc12 [Example M05281] | ∘
COc1ccc(C[C@@H]2C[C@@H](C(=O)NCc3ccc4c(c3)nnn4C)N(C(=O)[C@H]3C[C@@H](c4cccnc4)CN3)C2)cc1 [Example M05354] | ∘∘∘
COc1cc(CNC(=O)[C@@H]2C[C@@H](C)CN2C(=O)[C@H](N)CCc2ccccc2)ccc1CN [Example M05074] | ∘∘∘
COc1ccc(C[C@@H]2C[C@@H](C(=O)NCc3nc4cnccc4[nH]3)N(C(=O)[C@H](N)CCC(=O)N3CCCC3)C2)cc1 [Example M00973] | ∘∘∘

## Input Give FXa (human)/FXIIa alpha (human); test system FXa (Homo sapiens); compound Cc1ccc(C[C@@H]2C[C@@H](C(=O)NCc3cc4cnccc4[nH]3)N(C(=O)[C@H](N)CCC(=O)N3CCCC3)C2)cc1 [Example M00968]
## Output ∘∘∘

## Input Give FXa (human)/FXIIa alpha (human); test system FXa (Homo sapiens); compound COc1ccc(C[C@@H]2C[C@@H](C(=O)NCc3ccc4c(c3)nnn4C)N(C(=O)C3NCCc4cc(Br)ccc43)C2)cc1 (some centres unmarked) [Example M05471]
## Output ∘∘

## Input Give FXa (human)/FXIIa alpha (human); test system FXa (Homo sapiens); compound COc1ccc(C[C@@H]2C[C@@H](C(=O)NCc3ccc4c(c3)c(C)nn4C)N(C(=O)[C@H](N)CCC(=O)N3CCCC3)C2)cc1 [Example M05447]
## Output ∘∘∘

## Input Give FXa (human)/FXIIa alpha (human); test system FXa (Homo sapiens); compound Cn1nnc2cc(CNC(=O)[C@@H]3C[C@@H](Cc4ccc(F)cc4)CN3C(=O)C3C[C@@H](c4ccccc4)CN3)ccc21 (some centres unmarked) [Example M05324]
## Output ∘∘

## Input Give FXa (human)/FXIIa alpha (human); test system FXa (Homo sapiens); compound Cn1nnc2cc(CNC(=O)[C@@H]3C[C@H](NC4CCCCC4)CN3C(=O)[C@H](N)CCc3ccccc3)ccc21 [Example M05203]
## Output ∘∘

## Input Give FXa (human)/FXIIa alpha (human); test system FXa (Homo sapiens); compound Cn1nnc2cc(CNC(=O)[C@@H]3C[C@H](Cc4ccccn4)CN3C(=O)[C@H](N)CCC(=O)N3CCCC3)ccc21 [Example M05296]
## Output ∘∘∘
